test system: 242566-281-R-J2-PDC complex spheroid viability; assay: Anticancer human tumor 242566-281-R-J2-PDC patient-derived pancreatic carcinoma cell line growth inhibition [CLK]; conditions: second compound 10 µM; first compound 0.316 µM; active compounds read low;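 also: spheroids exposed to compounds for 7 days before readout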
Decision: viability, T/C beneath 3% gives yes; viability, T/C meeting or exceeding 3% gives no.

- CC(=O)O[C@H]1C(=O)[C@@]2(C)[C@H]([C@H](OC(=O)c3ccccc3)[C@]3(O)C[C@H](OC(=O)[C@H](O)[C@@H](NC(=O)c4ccccc4)c4ccccc4)C(C)=C1C3(C)C)[C@]1(OC(C)=O)CO[C@@H]1C[C@@H]2O + CN1CCN(c2cc(C(=O)Nc3cc4cc(-c5cnn(C)c5)ccc4cn3)ccn2)CC1: yes
- COC1C=CCC(C)C(C)S(=O)(=O)NC(=O)c2ccc3c(c2)N(CC2CCC21)CC1(CCCc2cc(Cl)ccc21)CO3 (stereo not given) + CN1CCN(c2cc(C(=O)Nc3cc4cc(-c5cnn(C)c5)ccc4cn3)ccn2)CC1: yes
- C=CC(=O)N1CCN(c2nc(=O)n(-c3c(C)ccnc3C(C)C)c3nc(-c4c(O)cccc4F)c(F)cc23)C(C)C1 (stereo not given) + CN1CCN(c2cc(C(=O)Nc3cc4cc(-c5cnn(C)c5)ccc4cn3)ccn2)CC1: yes
- Nc1ccn(C2OC(CO)C(O)C2(F)F)c(=O)n1 (stereo not given) + CNC(=O)c1ccc(Nc2nc(OC3CCCC3)c3c(-c4ccc5nc(C)oc5c4)c[nH]c3n2)c(OC)c1: no
- CC(CO)NC(=O)c1cc(-c2ccc(Cl)cc2)nn(-c2cnn(C)c2)c1=O (stereo not given) + CN1CCN(c2cc(C(=O)Nc3cc4cc(-c5cnn(C)c5)ccc4cn3)ccn2)CC1: yes
